Reported IC50 is given for each of the following molecules.
Target: cIAP2-BIR3 (Homo sapiens (Human))
Sequence (Q13489 238-349): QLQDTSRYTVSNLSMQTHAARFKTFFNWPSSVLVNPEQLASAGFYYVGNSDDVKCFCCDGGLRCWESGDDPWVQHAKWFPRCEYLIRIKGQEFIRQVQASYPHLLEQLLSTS
Assay: BIR binding assay (FRET competition), cIAP2 BIR3
Experimental: The BIR domain binding assays are FRET based competition assays that utilize His-tagged versions of each of the BIR2 and BIR3 domains from cIAP1, cIAP2, and XIAP (each domain assayed separately) each at a custom optimal concentration and a probe, 200 nM SMAC/DIABLO peptide […] labelled with AlexaFluor647 (part #crb 1110326h, Discovery Peptides). The assay is conducted in 50 mM HEPES, […], 1 mM CHAPS, 5% Glycerol, 1 mM DTT, in dI water with a final pH of 7.4 and final volume of 20 uL. […]

Some solved entries appear below for comparison.
{"smiles-repr": "C[C@@H]1CN(CC(=O)N2CC(C)(C)c3ncc(N(C)c4ccc(F)cc4)cc32)[C@@H](CN2CCO[C@H](COc3cccc(OC[C@@H]4CN(C[C@H]5CN[C@H](C)CN5CC(=O)N5CC(C)(C)c6ncc(N(C)c7ccc(F)cc7)cc65)CCO4)c3)C2)CN1", "IC50": "0.0316 to 0.501 µM"}
{"smiles-repr": "C[C@@H]1CN(CC(=O)N2CC(C)(C)c3[nH]c(=O)c(Cc4ccc(F)cc4)cc32)[C@@H](CN2CCN(CCc3cn(CCC(=O)N4CCN(C[C@H]5CN[C@H](C)CN5CC(=O)N5CC(C)(C)c6[nH]c(=O)c(Cc7ccc(F)cc7)cc65)[C@H](C)C4)nn3)C[C@H]2C)CN1", "IC50": "0.00794 to 0.0158 µM"}
{"smiles-repr": "C[C@@H]1CN(CC(=O)N2CC(C)(C)c3c2cc(Cc2ccc(F)cc2)c(=O)n3C)[C@@H](CN2CCO[C@H](COCc3ccc(COC[C@@H]4CN(C[C@H]5CN[C@H](C)CN5CC(=O)N5CC(C)(C)c6c5cc(Cc5ccc(F)cc5)c(=O)n6C)CCO4)cc3)C2)CN1", "IC50": "0.0158 to 0.0316 µM"}
{"smiles-repr": "C[C@@H]1CN(CC(=O)N2CC(C)(C)c3[nH]c(=O)c(Cc4ccc(F)cc4)cc32)[C@@H](CN2CCO[C@H](COc3cccc(OC[C@@H]4CN(C[C@H]5CN[C@H](C)CN5CC(=O)N5CC(C)(C)c6[nH]c(=O)c(Cc7ccc(F)cc7)cc65)CCO4)c3Br)C2)CN1", "IC50": "0.00794 to 0.0158 µM"}
{"smiles-repr": "C[C@@H]1CN(CC(=O)N2CC(C)(C)c3[nH]c(=O)c(Cc4ccc(F)cc4)cc32)[C@@H](CN2CCO[C@H](COc3cc(F)cc(OC[C@@H]4CN(C[C@H]5CN[C@H](C)CN5CC(=O)N5CC(C)(C)c6[nH]c(=O)c(Cc7ccc(F)cc7)cc65)CCO4)c3)C2)CN1", "IC50": "0.00138 to 0.00794 µM"}

// field: IC50; key: `C[C@@H]1CN(CC(=O)N2CC(C)(C)c3[nH]c(=O)c(Cc4ccc(F)cc4)cc32)[C@@H](CN2CCN(Cc3c(F)c(F)c(CN4CCN(C[C@H]5CN[C@H](C)CN5CC(=O)N5CC(C)(C)c6[nH]c(=O)c(Cc7ccc(F)cc7)cc65)[C@H](C)C4)c(F)c3F)C[C@H]2C)CN1` ; value = 0.0158 to 0.0316 µM

get_value(item= `C[C@@H]1CN(CC(=O)N2CC(C)(C)c3[nH]c(=O)c(Cc4ccc(F)cc4)cc32)[C@@H](CN2CCO[C@H](COc3cccc(OC[C@@H]4CN(C[C@H]5CN[C@H](C)CN5CC(=O)N5CC(C)(C)c6[nH]c(=O)c(Cc7ccc(F)cc7)cc65)CCO4)c3Cl)C2)CN1` , readout=IC50) returns 0.00794 to 0.0158 µM

The values you see were collected from patent US20250326771A1.
